Each entry below carries its reported pEC50.
target.under.test: PxTAR1 (Plutella xylostella, UniProt A0A4D6I7S9)
Construct: full-length ORF, 467 residues, 52266 Da; lentiviral vector pEB-TAR1-3flag-copGFP(T2A)PURO (3flag tag, GFP co-expressed via T2A)
Sequence (A0A4D6I7S9 1-467): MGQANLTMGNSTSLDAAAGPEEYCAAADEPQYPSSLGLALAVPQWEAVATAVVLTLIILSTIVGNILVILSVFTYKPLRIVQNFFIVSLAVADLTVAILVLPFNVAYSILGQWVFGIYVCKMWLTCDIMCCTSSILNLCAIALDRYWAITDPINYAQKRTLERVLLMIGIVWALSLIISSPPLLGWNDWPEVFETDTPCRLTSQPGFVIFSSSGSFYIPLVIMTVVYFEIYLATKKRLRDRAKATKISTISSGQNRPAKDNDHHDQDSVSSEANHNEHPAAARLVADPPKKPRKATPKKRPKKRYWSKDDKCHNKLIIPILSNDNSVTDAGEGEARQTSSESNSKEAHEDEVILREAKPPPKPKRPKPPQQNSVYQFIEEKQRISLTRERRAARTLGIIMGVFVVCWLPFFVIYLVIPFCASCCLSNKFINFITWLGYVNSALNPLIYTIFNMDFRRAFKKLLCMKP
test: intracellular Ca2+ assay, Cal-590 AM, confocal imaging, stable HEK-293 line
# pEC50: negative log10 of molar concentration; output just the value

Observe how each entry below is paired with its result.
C=C(C)[C@@H]1CC=C(C)C(=O)C1 [L(-)-carvone] ... 8.94
CNC=Nc1ccc(C)cc1C ... 7.07

Then this molecule:
Request: Query: pEC50; subject: `NCCc1ccc(O)cc1`
Response: 7.88
